- Assay Explanation: Stability in simulated gastric fluid
- Assay type: in vitro ADME
- Experimental Setup: 2 μM, 37° C., pH 1.5, 24 h
Where a SMILES comes first, the peptide text is derived from it. [ ]: non-standard residue; d: D form. ξ: configuration not given here. ξαMeBip(2'-Et,4'-OMe) = CCc1cc(OC)ccc1-c1ccc(CC(C)(N)C(=O)O)cc1; ξαMePhe(2,6-F2) = CC(N)(Cc1c(F)cccc1F)C(=O)O; ξαMe(hhPhe) = CC(N)(CCCc1ccccc1)C(=O)O; ξαMePhe(2-F) = CC(N)(Cc1ccccc1F)C(=O)O; ξhhPhe = NC(CCCc1ccccc1)C(=O)O; ξαMeD = CC(N)(CC(=O)O)C(=O)O; ξαMeP = CC1(C(=O)O)CCCN1; ξαMeS = CC(N)(CO)C(=O)O
Measured Metric: % degradation in 24 h when incubated with simulated gastric fluid (%)
Quick note: give the figure in %, leave out the unit.

The examples below pair each entry with its known result.
compound="CCc1cc(OC)ccc1-c1ccc(CC(C)(NC(=O)[C@H](CC(=O)O)NC(=O)C(C)(CO)NC(=O)[C@@H](NC(=O)C(C)(Cc2ccccc2F)NC(=O)[C@@H](NC(=O)CNC(=O)[C@H](CCC(N)=O)NC(=O)[C@H](CO)NC(=O)[C@H](Cc2c[nH]cn2)NC(=O)[C@@H](N)C(C)C)[C@@H](C)O)[C@@H](C)O)C(=O)NC(C)(CCCc2ccccc2)C(N)=O)cc1 (stereo partly drawn) [compound 165] (H-VHSQGT[ξαMePhe(2-F)]T[ξαMeS]D[ξαMeBip(2'-Et,4'-OMe)][ξαMe(hhPhe)]-NH2)" assay_value=100
compound="CCc1cc(OC)ccc1-c1ccc(CC(C)(NC(=O)[C@H](CC(=O)O)NC(=O)[C@H](CO)NC(=O)[C@@H](NC(=O)C(C)(Cc2c(F)cccc2F)NC(=O)[C@@H](NC(=O)CNC(=O)[C@H](CCC(N)=O)NC(=O)C2(C)CCCN2C(=O)[C@H](Cc2c[nH]cn2)NC(=O)[C@@H](N)C(C)C)[C@@H](C)O)[C@@H](C)O)C(=O)NC(CCCc2ccccc2)C(N)=O)cc1 (stereo partly drawn) [compound 28] (H-VH[ξαMeP]QGT[ξαMePhe(2,6-F2)]TSD[ξαMeBip(2'-Et,4'-OMe)][ξhhPhe]-NH2)" assay_value=14

The reported % degradation in 24 h when incubated with simulated gastric fluid of the compound CCc1cc(OC)ccc1-c1ccc(CC(C)(NC(=O)C(C)(CC(=O)O)NC(=O)[C@H](CO)NC(=O)[C@@H](NC(=O)C(C)(Cc2c(F)cccc2F)NC(=O)[C@@H](NC(=O)CNC(=O)[C@H](CCC(=O)O)NC(=O)[C@H](CO)NC(=O)[C@H](Cc2c[nH]cn2)NC(=O)[C@@H](N)C(C)C)[C@@H](C)O)[C@@H](C)O)C(=O)NC(C)(CCCc2ccccc2)C(N)=O)cc1 (stereo partly drawn) [compound 201] (H-VHSEGT[ξαMePhe(2,6-F2)]TS[ξαMeD][ξαMeBip(2'-Et,4'-OMe)][ξαMe(hhPhe)]-NH2) was 14
